# % Relative activity (WT antibody/test antibody) listing for each entry below
Target: T1, Cynomolgus TNFR2-His (Sino 90102-C08H) (cynomolgus monkey, UniProt A0A2K5VET2 132-366)
T1 construct: Bought protein; also called cynomolgus monkey TNFR2; recombinant cynomolgus monkey TNFR2 protein; not shown: His tag
T1 sequence: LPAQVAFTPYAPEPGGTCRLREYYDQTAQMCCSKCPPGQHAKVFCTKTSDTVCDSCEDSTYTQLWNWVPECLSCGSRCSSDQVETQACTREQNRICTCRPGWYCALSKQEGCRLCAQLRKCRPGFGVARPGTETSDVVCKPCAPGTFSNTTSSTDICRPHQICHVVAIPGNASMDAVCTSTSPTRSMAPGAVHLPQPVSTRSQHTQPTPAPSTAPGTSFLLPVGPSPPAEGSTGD
Experiment: ELISA, cynomolgus TNFR2-His coated; EC50 against 224-WT
Use % as the unit, but write only the number.

Any idea what its % Relative activity (WT antibody/test antibody) is? The binder is 224-Hu2 (antibody, V domains shown, Humanized form of #224; also called VH9 + VL7) VH: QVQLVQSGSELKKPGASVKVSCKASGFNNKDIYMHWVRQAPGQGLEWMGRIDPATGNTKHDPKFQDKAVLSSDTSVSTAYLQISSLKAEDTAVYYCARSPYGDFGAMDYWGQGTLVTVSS VL: DIQMTQSPSSLSASVGDRVTITCTASSSVSSNYLHWYQQKPGSSPKLWIYSTSNLPSGVPSRFSGSGSGTDFTLTISSLQPEDFATYYCHQYHRSPWTFGQGTKVEIK
109

Any idea what its % Relative activity (WT antibody/test antibody) is? The binder is 224-Hu7 (antibody, V domains shown, Humanized form of #224; also called VH9 + VL10) VH: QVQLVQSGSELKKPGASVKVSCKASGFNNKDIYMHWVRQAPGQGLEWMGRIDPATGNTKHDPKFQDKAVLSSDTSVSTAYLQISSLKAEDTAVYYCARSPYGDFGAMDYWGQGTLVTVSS VL: DIQMTQSPSSLSASVGDRVTITCTASSSVSSNYLHWYQQKPGKAPKLLIYSTSNLPSGVPSRFSGSGSGTDFTLTISSLQPEDFATYYCHQYHRSPWTFGQGTKVEIK
116

Any idea what its % Relative activity (WT antibody/test antibody) is? The binder is 224-Hu6 (antibody, V domains shown, Humanized form of #224; also called VH8 + VL7) VH: QVQLVQSGAEVKKPGASVKVSCKASGFNNKDIYMHWVRQAPGQGLEWIGRIDPATGNTKHDPKFQDRVTMTSDTSTNTVYMELSSLRSEDTAVYYCARSPYGDFGAMDYWGQGTLVTVSS VL: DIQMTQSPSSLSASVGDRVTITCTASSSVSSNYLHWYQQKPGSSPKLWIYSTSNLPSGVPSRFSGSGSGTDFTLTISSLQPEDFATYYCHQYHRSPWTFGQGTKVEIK
104

Any idea what its % Relative activity (WT antibody/test antibody) is? The binder is 224-Hu3 (antibody, V domains shown, Humanized form of #224; also called VH9 + VL8) VH: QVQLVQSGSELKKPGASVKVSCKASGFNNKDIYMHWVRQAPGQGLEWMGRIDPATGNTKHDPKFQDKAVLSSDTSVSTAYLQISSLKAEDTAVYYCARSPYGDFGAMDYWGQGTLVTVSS VL: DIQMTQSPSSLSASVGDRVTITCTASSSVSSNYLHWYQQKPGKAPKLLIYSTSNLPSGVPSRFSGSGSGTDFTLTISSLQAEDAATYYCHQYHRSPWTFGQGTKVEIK
108

Any idea what its % Relative activity (WT antibody/test antibody) is? The binder is 224-Hu4 (antibody, V domains shown, Humanized form of #224; also called VH9 + VL6) VH: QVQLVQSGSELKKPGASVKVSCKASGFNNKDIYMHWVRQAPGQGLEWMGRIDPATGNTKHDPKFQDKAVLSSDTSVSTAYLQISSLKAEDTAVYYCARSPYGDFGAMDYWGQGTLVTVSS VL: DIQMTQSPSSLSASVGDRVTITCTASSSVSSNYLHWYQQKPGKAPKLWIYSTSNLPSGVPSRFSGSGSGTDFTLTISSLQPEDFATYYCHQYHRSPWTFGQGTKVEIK
108

Any idea what its % Relative activity (WT antibody/test antibody) is? The binder is 224-Hu5 (antibody, V domains shown, Humanized form of #224; also called VH9 + VL9) VH: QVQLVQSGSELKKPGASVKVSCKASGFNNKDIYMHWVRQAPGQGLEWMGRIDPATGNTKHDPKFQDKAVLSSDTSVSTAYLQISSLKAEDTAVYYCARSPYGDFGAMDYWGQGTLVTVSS VL: DIQMTQSPSSLSASVGDRVTITCTASSSVSSNYLHWYQQKPGKAPKLLIYSTSNLPSGVPSRFSGSGSGTDYSLTISSLQPEDFATYYCHQYHRSPWTFGQGTKVEIK
106

Any idea what its % Relative activity (WT antibody/test antibody) is? The binder is 224-Hu1 (antibody, V domains shown, Humanized form of #224; also called VH8 + VL6) VH: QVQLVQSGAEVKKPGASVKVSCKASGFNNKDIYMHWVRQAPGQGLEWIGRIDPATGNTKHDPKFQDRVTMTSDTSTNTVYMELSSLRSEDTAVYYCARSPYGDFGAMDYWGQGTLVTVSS VL: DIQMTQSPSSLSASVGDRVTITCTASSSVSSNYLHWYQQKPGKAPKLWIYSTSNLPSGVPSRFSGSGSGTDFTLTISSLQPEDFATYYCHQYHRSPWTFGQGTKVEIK
105
